- System: TRPC4 beta (transient receptor potential cation channel C4), mouse
- assay.comment: potentiation of DAMGO EC20 TRPC4 response – cell-based, Fluo-4, HEK293 TRPC4beta/mu-opioid, confirmation (AID 2555)
- recorded.conditions: DAMGO EC20, Fluo-4 calcium flux, at 10 µM
Calls of active or inactive are those of the source.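 How the source made its calls: active means primary screen hit whose calcium fluorescence ratio, in both repeats, exceeds the weak agonist control mean by 3 SD; inactive means the rest.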
Outcomes you can answer with include only these: active, inactive

Worked cases, answers included:
CCCn1nc(C(=O)NC2CCCc3ccccc32)c2ccccc2c1=O (configuration not stated) | active
COc1ccc(C(CNC(=O)Cc2cccs2)N(C)C)cc1 (configuration not stated) | inactive

### Prompt For this compound, state the assay outcome: COc1cccc(NC(=O)COc2c(F)c(F)c(C(F)(F)F)c(F)c2F)c1
### Response inactive

### Prompt State the result this test recorded for Clc1cccc(C[n+]2cc(-c3ccccc3)n3c2CCC3)c1 .
### Response inactive

### Prompt Assay outcome for Cc1ccccc1C(=O)NNC(=S)NC(=O)COc1ccccc1 : what was it?
### Response inactive

### Prompt What did the test return for OC1(c2ccc(Br)cc2)CN(c2ccccc2)C2=[N+]1CCS2 (configuration not stated) ?
### Response inactive

### Prompt Field: outcome | Entry: Cc1nn(-c2ccccc2)c2[nH]c(C(F)(F)F)cc(=O)c12
### Response inactive

---

- assay.comment: nonspecific calcium rise without TRPC4 – cell-based, HEK293 mu-opioid receptor line, counter-screen for TRPC4 activator project, confirmation (AID 449723);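 further: counter screen cells carry the mu-opioid receptor alone and lack TRPC4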
- recorded.conditions: HEK293 mu-opioid cells, Fluo-4 calcium fluorescence, at 10 µM
Calls of active or inactive are those of the source.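 The calls were made as follows: active = hit in primary screen, with calcium signal over 5 SD above buffer well mean in both duplicates; inactive = the rest.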
Pick one and only one: active, inactive

The following compounds have reported results that may help.
COc1cccc(NC(=O)CCC(=O)N2CC(C)Oc3ccc(C)cc32)c1 (configuration not stated) | inactive
CCOC(=O)CSc1nc2c(sc(=S)n2-c2ccccc2OC)c(=O)n1-c1ccccc1OC | inactive
COc1cccc(OCc2cc(C(=O)N3CCN(C)C(c4ccccc4)C3)no2)c1 (configuration not stated) | inactive

### Prompt Can you look up the reported call for Cc1[nH]c2ccccc2c1C(=O)CN1C(=O)NC(C)(c2ccc(Cl)cc2Cl)C1=O (configuration not stated) for me?
### Response inactive

### Prompt Answer briefly: the call reported for Fc1ccccc1CNCCC(Cc1ccccc1)c1ccc2c(c1)OCO2 (configuration not stated) in this assay.
### Response inactive

### Prompt Assay outcome for O=C(OC1C2CCC1C1CN(CCc3ccccc3)CC12)c1ccccc1 (configuration not stated) : what was it?
### Response inactive

### Prompt Kindly provide the recorded test outcome for the following compound: Cn1c2ccccc2c(=O)c2c(=O)n(C3CCCCC3)c(-c3ccco3)nc21
### Response active

### Prompt Outcome logged for Cc1ccc(-c2c[n+](Cc3cccc(Cl)c3)c3n2CCC3)cc1 in this assay:
### Response inactive

---

- system: Short transient receptor potential channel 4 (Mus musculus) (UniProt Q9QUQ5)
- Sequence (Q9QUQ5 whole entry, looked up): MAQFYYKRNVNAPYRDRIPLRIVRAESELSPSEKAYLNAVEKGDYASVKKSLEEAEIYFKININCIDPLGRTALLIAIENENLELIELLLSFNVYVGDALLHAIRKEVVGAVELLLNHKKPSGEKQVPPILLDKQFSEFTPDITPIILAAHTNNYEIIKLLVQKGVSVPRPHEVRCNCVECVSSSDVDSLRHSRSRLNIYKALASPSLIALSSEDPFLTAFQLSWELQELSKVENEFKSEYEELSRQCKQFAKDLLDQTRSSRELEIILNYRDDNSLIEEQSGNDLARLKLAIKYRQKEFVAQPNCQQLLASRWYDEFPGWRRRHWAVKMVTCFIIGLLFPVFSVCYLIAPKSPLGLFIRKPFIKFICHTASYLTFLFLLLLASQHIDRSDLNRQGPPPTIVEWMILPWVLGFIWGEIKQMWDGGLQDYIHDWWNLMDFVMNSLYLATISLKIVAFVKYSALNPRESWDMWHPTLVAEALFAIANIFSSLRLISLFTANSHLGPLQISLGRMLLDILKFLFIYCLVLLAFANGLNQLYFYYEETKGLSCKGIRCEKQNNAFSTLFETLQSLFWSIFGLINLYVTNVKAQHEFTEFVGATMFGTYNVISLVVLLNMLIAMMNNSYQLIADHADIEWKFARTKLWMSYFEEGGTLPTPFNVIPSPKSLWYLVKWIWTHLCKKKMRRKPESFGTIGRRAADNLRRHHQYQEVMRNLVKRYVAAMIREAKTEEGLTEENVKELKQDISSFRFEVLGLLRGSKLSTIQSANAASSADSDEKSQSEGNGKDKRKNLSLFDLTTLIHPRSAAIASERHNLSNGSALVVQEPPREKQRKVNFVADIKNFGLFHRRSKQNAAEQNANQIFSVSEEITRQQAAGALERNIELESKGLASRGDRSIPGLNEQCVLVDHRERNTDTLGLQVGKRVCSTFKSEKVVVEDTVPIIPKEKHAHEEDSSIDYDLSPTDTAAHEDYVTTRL
- assay.comment: blockers of DAMGO-evoked TRPC4 calcium flux – cell-based, second round, Fluo4, HEK293 TRPC4beta/mu-opioid, 1 µM, confirmation (AID 2637)
- recorded.conditions: at 1 µM
Calls of active or inactive are those of the source.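 How the source made its calls: active means calcium signal ratio cut to more than 3 SD under the fully stimulated control mean yet still positive, in both repeats and the primary screen; inactive means the rest.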
Pick one: active, inactive

Field: example entries. Status: answers known.
NS(=O)(=O)c1ccc(CCNCc2ccccc2OCc2ccc(F)cc2)cc1 | active
Cc1n[nH]c(C)c1CCCCOc1ccccc1 | active
CC(NCCC(Cc1ccccc1)c1ccco1)c1ccccc1 (stereo unspecified) | inactive
CCCCC(=O)NC(=S)NNC(=O)c1ccc(Cl)cc1Cl | inactive
Cc1ccc(Cn2c(=N)c(C(=O)NCC3CCCO3)cc3c(=O)n4ccccc4nc32)cc1 (stereo unspecified) | inactive
COCCNc1c2c(nc3ccccc13)CCC2 | active
CCOc1ccc(Nc2nc(Cc3nnc(SCC(=O)c4ccc(C)cc4)o3)cs2)cc1 | inactive
CCOc1ccc(-n2c(C)cc(/C=C3/C(=N)N4C(=NC3=O)SN=C4S(C)(=O)=O)c2C)cc1 | inactive
COc1ccc(C(CNC(=O)c2cc(C)on2)N(C)C)cc1 (stereo unspecified) | inactive
Cc1cccc(NC(=O)c2cc([N+](=O)[O-])ccc2N2CCN(C)CC2)c1 | inactive

### Prompt Short answer needed: outcome of this test for Fc1ccccc1COc1ccccc1CNCc1ccncc1 ?
### Response inactive

Numbers sourced from PubChem BioAssay.
